ASSAY_OVERVIEW: ATG_EGR_CIS: Attagene CIS-FACTORIAL HepG2 Assay for human Early Growth Response 1 (EGR1) (AID 2282938)
ASSAY_CONTEXT: HepG2 Attagene CIS-FACTORIAL EGR reporter mRNA; actives raise or lower the signal
Calls of active or inactive are those of the source. Rule for the calls: active = hit-call score of the fitted dose curve at least 0.9, where 1 is the maximum; inactive = score below 0.9.
I would appreciate it if you answered using one of these outcomes: active, inactive

Worked set:
CCCCCCCCCCCC(=O)N(C)CC(=O)O ... inactive
N#CC1(N)CCCCC1 ... inactive
Cc1cc(C)c(C=O)c(C)c1 ... inactive
CCCCCCCCCCCCCC(=O)OC(C)C ... inactive
c1ccc2cnccc2c1 ... inactive
CCCCCOC(=O)CCCCC ... inactive

Data request: Record request — test call for N#Cc1ccc(C2CCCc3cncn32)cc1 (stereo not drawn)
Data returned: inactive

Data request: Record request — test call for O=S(=O)(O)c1ccc(N=Nc2c(O)ccc3ccccc23)cc1
Data returned: inactive

Data request: Record request — test call for C=CCCCCCCCCO
Data returned: inactive

Data request: Record request — test call for O=C(C=Cc1ccccc1)OCCc1ccccc1
Data returned: inactive

Data request: Record request — test call for CCCCC(=O)O
Data returned: inactive

---

ASSAY_OVERVIEW: CCTE_Shafer_MEA_acute_spike_number: CCTE's Neural Acute Assay for Total Number of Spikes, Shafer Lab (AID 2284008)
The source made the active and inactive calls. The calls were made as follows: active = hit-call score of the fitted dose curve at least 0.9, where 1 is the maximum; inactive = score below 0.9. Peptide text beside a SMILES is read from it.
MEASURED_PARAMETER: outcome

CC/C=C\CCOC(=O)c1ccccc1O ... inactive
COC(=O)[C@H](Cc1ccccc1)NC(=O)[C@@H](N)CC(=O)O (H-Asp-Phe-OMe) ... inactive
CCCC(C)C(=O)OCC (stereo unspecified) ... inactive
C1CNCCN1 ... inactive
CC(CCC(=O)O)(c1ccc(O)cc1)c1ccc(O)cc1 ... inactive

Data request: # return recorded outcome for input Cc1c(C(=O)c2c[nH]n(C)c2=O)ccc(S(C)(=O)=O)c1C1=NOCC1
Data returned: inactive

---

Read-out: Monokine induced gamma interferon (MIG), CXCL9 (gene 4283)
ASSAY_OVERVIEW: BSK_hDFCGF_MIG: BioMAP Diversity Plus: hDFCGF Assay for Monokine induced gamma interferon (MIG) Biomarker Activity (AID 2283063)
ASSAY_CONTEXT: primary human foreskin fibroblasts; actives raise or lower the signal
Procedure: BSK_hDFCGF is a cell-based, multiplexed-readout assay that uses foreskin fibroblast, a human skin primary cell, with measurements taken at 24 hours after chemical dosing in a 96-well plate.BSK_hDFCGF_MIG is an assay component measured in the BSK_hDFCGF assay. It measures MIG antibody related to regulation of gene expression using ELISA technology.Data from the assay component BSK_hDFCGF_MIG was analyzed into 1 assay endpoint. […]
Activity calls are given as the source filed them. The calls were made as follows: active = hit-call score of the fitted dose curve at least 0.9, where 1 is the maximum; inactive = score below 0.9.
MEASURED_PARAMETER: AC50

Here are 4 compounds together with their reported answers.
CC(C)C(=O)OCCc1ccccc1 ... inactive
CCOC(=O)/C=C\C(=O)OCC ... inactive
c1ccc2c(c1)[nH]c1ccccc12 ... inactive
O=C1CCCCCCCCCCCN1 ... inactive

Data request: # return recorded AC50 for input CCCCCCCCCCCC(=O)N(C)CC(=O)O
Data returned: inactive

Data request: # return recorded AC50 for input CC/C=C\C/C=C\C/C=C\CCCCCCCC(=O)OC
Data returned: 11.1 µM (active)
